testProtocol: 384-well plate pilot, post-Golgi transport modulator project, inhibition of yeast transport mutant growth (AID 636)
experimentalParameters: absorbance 615 nm, about 18 h, stronger effect = higher value
Each entry below carries its reported inhibition.
Please state the figure in %; there is no need to write the unit.

CCCN(C(=O)CSc1nnc(-c2ccoc2C)n1N)C1CCS(=O)(=O)C1 (stereo not drawn) : -2.6

Please report the recorded inhibition for `O=C(CSc1nc2ccccc2s1)N1CCOCC1` .
-2.27

So what does the record say about inhibition for `COc1ccc(CNC(=O)COC(=O)c2n[nH]c3ccccc23)cc1OC` ?
-7.47

Record request: inhibition value, item `COC(=O)c1[nH]c2cccc(C)c2c1NC(=O)CN1CCCc2ccccc21`
-1.47

Entry `CCOc1ncccc1C(=O)OCC(=O)Nc1ncc(C(F)(F)F)cc1Cl` has what inhibition?
-1.58

###

Measured viability, listed per entry.
testProtocol: HUVEC growth inhibition – cell-based, human, primary screen (AID 575);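 also: 100% = median of untreated cell wells with 0.1% DMSO on each plate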
experimentalParameters: HUVEC proliferation, CellTiter-Glo luminescence, 72 h; at 10 µM; stronger effect = lower value
# unit: % | format: bare number

Some compounds with known viability results, for comparison:
COc1ccc(C(=O)NCCn2ccc3ccccc32)cc1 : 111
Cc1ccc(NC(=O)CSc2nnc(-c3cnccn3)n2Cc2ccco2)cc1C : 80.6
Fc1ccccc1-c1nc(NCCCN2CCOCC2)c2ccccc2n1 : 85.6
Cc1cc(-c2ccccc2)c(C#N)c(N)n1 : 81.9
Cc1c(C(=O)NCc2cccnc2)oc2ccc(S(=O)(=O)N3CCCCC3)cc12 : 65.6
O=C(CCSc1nccn1Cc1ccccc1)N1CCOCC1 : 103
COCCCN1C(=O)C(O)=C(C(=O)c2ccco2)C1c1ccc(Br)cc1 (stereo unspecified) : 99.5
CCOC(=O)c1sc(N2C(=O)C(O)=C(C(=O)c3ccco3)C2c2ccccc2)nc1C (stereo unspecified) : 77.4

Data request, read-out viability, for Cc1ccc(Cn2nnc3c(=O)n(CC(=O)NCC4CCCO4)cnc32)cc1 (stereo unspecified)
105

Consider the compound shown here: `Cc1ccc(NC(=O)N2CCC(c3nc4c(nnn4Cc4cccc(Cl)c4)c(=O)[nH]3)CC2)cc1` What is its recorded viability?
61.8

I would be grateful if you could share the reported viability for COC(=O)c1ccc(NC(=O)C2CC(=O)N(c3cc(C)ccc3C)C2)cc1 (stereo unspecified) .
96.3

###

systemName: Receptor tyrosine-protein kinase erbB-2 (Homo sapiens)
testProtocol: reducers of endogenous Her2 protein level, primary screen, SKBR3 breast tumor cells, AlphaScreen, ATP viability (AID 461);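 also: lower value means less Her2 protein in the cells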
experimentalParameters: 18-24 h, at 10 µM, stronger effect = lower value
Consider the following molecules and their measured Her2 level readings.
Return type: number; implicit unit %.

Here's what some known entries look like.
O=C(CSc1nnnn1Cc1ccccc1)Nc1ccc2c(c1)OCO2 : 108
O=C(COC(=O)C1CCN(S(=O)(=O)c2cccs2)CC1)c1cc2ccccc2o1 : 83
O=C(Nc1ccc(O)cc1)C1CCCN1S(=O)(=O)c1ccc(F)cc1 (stereo not given) : 92
CCOc1ccc2[nH]c(=O)c(CN(Cc3nnnn3CCc3ccccc3)CC3CCCO3)cc2c1 (stereo not given) : 89

Kindly review the next molecule as well.
For `CN1CCCN(C(=O)c2cc(=O)[nH]c3ccccc23)c2nc3ccccc3nc21` , what is its reported Her2 level?
90

###

// viability lookup, one value per entry
testProtocol: reversal of MRP1-mediated doxorubicin resistance, pilot screen, H69AR cells, doxorubicin co-treatment (AID 601)
experimentalParameters: H69AR cells + 2 uM doxorubicin, CellTiter-Glo, 72 h; measured here: viability with 2 uM doxorubicin; at 10 µM; stronger effect = lower value

O=C(NC1=NCCS1)NC12CC3CC(CC(C3)C1)C2 : 88.7%
O=C(O)CCCC(=O)Nc1nc(-c2ccc(F)cc2)cs1 : 92.4%
CCCCP(=O)(CCCC)Cc1ccccc1O : 89.8%
O=C(CSc1n[nH]c(-c2cccs2)n1)N1CCN(S(=O)(=O)c2ccccc2)CC1 : 106%
COc1ccc(CCNS(=O)(=O)c2ccc3oc(C(=O)O)c(C)c3c2)cc1OC : 91.2%

Moving on to the next compound.
I would be grateful if you could share the reported viability for CCOC(=O)C1CCCN(c2c(N3CCN(c4ccccn4)CC3)c(=O)c2=O)C1 (stereo unspecified) .
86.5%

###

Each entry below carries its reported viability.
testProtocol: SK-BR-3 cell growth inhibitors, pilot screen, 24 h, human (AID 572);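 also: compound exposure lasted between 18 and 24 h rather than exactly 24 h; 100% = carrier-treated control wells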
experimentalParameters: SK-BR-3 viability, CellTiter-Glo luminescence, at 10 µM, stronger effect = lower value
Active and inactive are the calls of the source.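 The calls were made as follows: active = viability at or below 10% of carrier control in both of two separate runs; inconclusive = viability at or below 10% in only one of the two runs; inactive = the rest.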

CN(C(=O)CSc1nc2c(c(=O)[nH]1)CCCC2)C1CCCCC1 : 95% (inactive)
N#CCCCN1C(=O)C(O)(CC(=O)c2ccc3c(c2)OCCO3)c2ccccc21 (stereo unspecified) : 100% (inactive)
CCOc1ccc(S(=O)(=O)N2CCN(C(=O)c3cccn3C)CC2)cc1 : 101% (inactive)
COc1cc(CC(=O)Nc2ncc(C)s2)cc(OC)c1OC : 109% (inactive)
O=C(Nc1cccc(C(F)(F)F)c1)c1ccco1 : 129% (inactive)
CC(C)=CCCC(C)CN(C)CCc1ccccn1 (stereo unspecified) : 79% (inactive)

Which viability value belongs to `Cc1nc(N2CCOCC2)[nH]c(=O)c1CCC(C)C` ?
120% (inactive)

Using the record for [N-]=[N+]=CC(=O)CC(c1ccccc1)N1C(=O)c2ccccc2C1=O (stereo unspecified) , report its viability.
93.5% (inactive)

###

testProtocol: reversal of MRP1-mediated doxorubicin resistance, pilot screen, H69AR cells, doxorubicin co-treatment (AID 601)
experimentalParameters: H69AR cells + 2 uM doxorubicin, CellTiter-Glo, 72 h; measured here: viability with 2 uM doxorubicin; at 10 µM; stronger effect = lower value
# key: entry, value: viability
All answers are understood in %, so give the number only.

The following molecules have reported results that may help.
CCc1cc2c(=O)n(C(C)C(=O)OC3CCCCC3)cnc2s1 (stereo not given) : 85.9
CSc1cccc(NC(=O)C2CCCN2S(=O)(=O)c2ccc3c(c2)CCC(=O)N3)c1 (stereo not given) : 88.6
Cn1c(SCC(=O)Nc2ccc3c(c2)oc2ccccc23)nnc1-c1ccccc1 : 77.1
Cc1cc2c(=O)n(CC(=O)N3CCN(c4ccccc4)CC3)cnc2s1 : 88.2

As a next step, examine the molecule that follows.
Tell me the measured viability of `CCC(=O)N(Cc1cc2c(C)ccc(C)c2[nH]c1=O)C1CCCCC1` , please.
86.6

###

testProtocol: growth suppression of yeast trafficking mutant, preliminary HTS, modulators of trafficking downstream of Golgi apparatus project, 1536-format plate, OD 615 nm (AID 637)
experimentalParameters: yeast transport mutant growth, absorbance 615 nm, 18 h; stronger effect = higher value
observable: inhibition (%)
Please reply with the bare figure in % and do not write the unit itself.

These recorded examples may help you get a feel for the data.
COc1ccc(NC2c3ncccc3C(=O)N2Cc2ccccc2)c(OC)c1 (stereo unspecified) : 1.75
CCCCc1n[nH]c2c1C(=O)CC(C)(C)C2 : 0
COC(=O)C1CCN(C(=O)c2sc3nc(-c4ccc(F)cc4)cn3c2C)CC1 : 0.81
CCCCOC(=O)n1c(SCC(=O)N(CC)CC)nc2ccccc21 : -4.29
CC(=O)NCCn1ccc2ccccc21 : 3.93

Could you tell me which inhibition is on file for `COc1ccc(C)cc1NC(=O)c1nnn(Cc2cccc(F)c2)c1N` ?
-5.9

Give the measured inhibition of `CC(C)OC(=O)CSc1nnc(Cc2ccccc2)n1Cc1ccco1` .
14.1

# input molecule: `Cc1ccc(S(=O)(=O)n2nc(OC(=O)c3ccco3)cc2N)cc1` ; wanted: its inhibition
-1.45

Which inhibition is reported for this molecule? CCC(CO)Nc1ncnc2c1cnn2-c1ccc(Cl)cc1 (stereo unspecified)
-5

Item under review: `COc1cccc(NC(=O)COC(=O)c2ccco2)c1` . Reported inhibition?
-1.27

What does the data say about its inhibition? Entry: `O=S(c1ccsc1)c1ccsc1`
1.29

Entry under review: `Cc1ccc(S(=O)(=O)N(CC(=O)N2CCC(C(N)=O)CC2)c2cccc(C(F)(F)F)c2)cc1` . Reported inhibition?
5

Sample `Cn1c(=O)cc(OCC(=O)N2CCN(c3cccc(C(F)(F)F)c3)CC2)c2ccccc21` — what was its inhibition?
5.57

What value of inhibition has been reported for the following molecule? CC1=C(C)[N+](=O)C2CCCCC2N1[O-] (stereo unspecified)
-9.34

Request the reported inhibition associated with `COC(=O)[C@H](C)NC(=O)NCc1ccc(F)cc1`
-1.43

Look up inhibition for this molecule: `Cn1nnnc1SCC(=O)NCc1ccco1`
-6.72

Which inhibition value is on record for `N#Cc1c(NC(=O)CSc2nc(N)cc(=O)[nH]2)sc2c1CCCCCC2` ?
-10

Fill blank: measured inhibition of the molecule CC(C)C1C2=C(CC(C)(C)CC2=O)ON1c1ccccc1 (stereo unspecified) is ____.
-0.48

# query: inhibition of entry `CCn1c(=S)ccc2ccc(OC)cc21`
-7.46

Fill blank: measured inhibition of the molecule `Cc1nnc(NC(=O)Nc2cccc(Cl)c2)s1` is ____.
-4.03

Item under review: `O=C(OCC#CCSc1nc2ccccc2s1)c1ccco1` . Reported inhibition?
-10.8

The measured values listed here are drawn from PubChem BioAssay.
